# pEC50 listing for each entry below
Experimental target: human urotensin II receptor (Homo sapiens, UniProt Q9UKP6)
Construct: expressed in transfected cells; host or cells: NIH3T3 cells
Sequence (Q9UKP6 whole entry): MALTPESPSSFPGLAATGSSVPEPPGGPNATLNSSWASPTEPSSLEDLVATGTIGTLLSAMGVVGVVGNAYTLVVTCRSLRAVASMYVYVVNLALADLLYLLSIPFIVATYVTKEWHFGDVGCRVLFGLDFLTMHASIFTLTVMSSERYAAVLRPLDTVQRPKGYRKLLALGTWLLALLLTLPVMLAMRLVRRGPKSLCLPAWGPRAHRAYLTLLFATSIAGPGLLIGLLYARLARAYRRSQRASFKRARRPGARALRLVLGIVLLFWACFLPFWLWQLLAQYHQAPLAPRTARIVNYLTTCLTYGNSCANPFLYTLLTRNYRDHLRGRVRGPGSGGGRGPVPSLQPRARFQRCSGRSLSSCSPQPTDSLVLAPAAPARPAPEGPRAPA
Assay info: Receptor Selection and Amplification (R-SAT) functional assay, NIH3T3 cells transfected with human urotensin II receptor and β-galactosidase marker
Format: cell-based
Conditions: Table 3, negative of the log EC50 in molarity, average ± standard deviation (or range) of determinations, eight doses in triplicate
pEC50: −log10 of the molar value. Where a name gives a salt, the structure may show the parent alone.

Compound | Experimental target | pEC50
CN(C)CCC(NC(=O)Nc1ccc(-c2ccccc2)cc1)c1ccc(Cl)cc1 (stereo not shown) [8f] | human urotensin II receptor (Homo sapiens, UniProt Q9UKP6) | 6.75 to 6.96
Cc1cccc(C(=O)OC(CCN(C)C)c2ccc(Cl)cc2)c1C (stereo not shown) [4d, HCl] | human urotensin II receptor (Homo sapiens, UniProt Q9UKP6) | 5.90
CN(C)CCC(OC(=O)Nc1ccc2ccccc2c1)c1ccc(Cl)cc1 (stereo not shown) [7g] | human urotensin II receptor (Homo sapiens, UniProt Q9UKP6) | 6.12 to 6.58
CN(C)CCC(NC(=O)Nc1ccc2ccccc2c1)c1ccc(Cl)cc1 (stereo not shown) [8g] | human urotensin II receptor (Homo sapiens, UniProt Q9UKP6) | 6.42 to 6.64
COc1ccc(NC(=O)NC(CCN(C)C)c2ccc(Cl)cc2)cc1 (stereo not shown) [8h] | human urotensin II receptor (Homo sapiens, UniProt Q9UKP6) | 5.63 to 5.74
CCc1ccccc1C(=O)NC(CCN(C)C)c1ccc(Cl)cc1 (stereo not shown) [5c, oxalate] | human urotensin II receptor (Homo sapiens, UniProt Q9UKP6) | 5.99
CN(C)CCC(OC(=O)c1ccc(C(F)(F)F)cc1)c1ccc(Cl)cc1 (stereo not shown) [4q, oxalate] | human urotensin II receptor (Homo sapiens, UniProt Q9UKP6) | 5.68 to 5.93
COc1ccc(NC(=O)OC(CCN(C)C)c2ccc(Cl)cc2)cc1 (stereo not shown) [7h] | human urotensin II receptor (Homo sapiens, UniProt Q9UKP6) | 5.61 to 6.02
CN(C)CCC(NC(=O)c1ccc2ccccc2c1)c1ccc(Cl)cc1 (stereo not shown) [5n, oxalate] | human urotensin II receptor (Homo sapiens, UniProt Q9UKP6) | 6.39
CN(C)CCC(NC(=O)Nc1ccc(C(F)(F)F)cc1)c1ccc(Cl)cc1 (stereo not shown) [8i] | human urotensin II receptor (Homo sapiens, UniProt Q9UKP6) | 6.81 to 7.01
